# Assay Comment: recombinant barcode read abundance after kanamycin selection (control-corrected) (log10(CPM+1)); higher = more efficient recombination; sequences stand for … in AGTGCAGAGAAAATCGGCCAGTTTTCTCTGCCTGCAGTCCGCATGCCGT…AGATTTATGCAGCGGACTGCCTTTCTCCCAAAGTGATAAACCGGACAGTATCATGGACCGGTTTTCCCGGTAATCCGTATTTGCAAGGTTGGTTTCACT; site = the 11-nt target;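 also: IS621 recombinase and bridge RNA in Escherichia coli cells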
Parameter Measured: recombinant barcode read abundance (log10)
Format: numeric value only, no unit, no commentary.

Illustrative cases are given below, each with its answer.
{"Sequence Record": "GGATACACTTGGGTTCTAACCTGTTGCCA (site GGATACACTTG)", "Numeric Readout": 1.35}
{"Sequence Record": "CTGATCACTTGGGTTCTAACCTGTTGCCT (site CTGATCACTAG)", "Numeric Readout": 1.03}

What does the data say about its recombinant barcode read abundance (log10)? Entry: GCCGGTCCTTGGGTTCTAACCTGTTGCCT (site GCGGGTCCTAG)
0.451

What recombinant barcode read abundance (log10) value was documented for this sequence, ACCTGTACTTGGGTTCTAACCTGTTGCCT (site ACCAGTACTAG) ?
0.0531

Given the sequence CGGAATCCTTGGGTTCTAACCTGTTGCTT (site CGGAATCCTAA) , what is its reported recombinant barcode read abundance (log10)?
0.9
